All figures here come from paper PMC10065799.

- Test target: c-Src kinase domain (Homo sapiens, UniProt P12931)
- Method notes: pTyr-Var library bacterial peptide display kinase screen (enrichment scores);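 also: log2 fold change in enrichment of variant over reference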
- Type: biochemical
- Run conditions: sheet "Src"; effect of the variant peptide relative to its reference peptide in the pTyr-Var library screen
Property label: Screen
The reply should be a number, written without any unit.

Sequence content: IIEDPYFGNDF [ACP1_Y132_S137F_YF]
Screen: 0.7844

Suppose we examine the sequence LNEAVYTKMMT [G6PD_Y401_P396L] ; what Screen value has been reported?
0.3249

What about this sequence? KRNSLYSFSDH [CCDC82_Y331_Q327R]
-1.645

What do you get for LLTALYFISWG [KCNH2_Y780_R784W] ?
0.3693

Please answer likewise for QSSALYEDHFL [ASS1_Y83_R86H_YF]
0.1278

Also PQAVTYATVKH [LILRB4_Y360_K362T] , if possible.
2.009

---

- Tested on: EPHB2 kinase domain
- Method notes: pTyr-Var library bacterial peptide display kinase screen (enrichment scores);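 also: log2 fold change in enrichment of variant over reference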
- Type: biochemical, human
- Run conditions: sheet EPHB2; effect of variant peptide relative to its reference peptide in the pTyr-Var library screen (enrichment scores)
Recorded Screen split into classes small value (below -0.5), mid value (-0.5 to below 1), large value (1 or more)

Bin this entry: VGTKWYMAPEV [ACVRL1_Y375_R374W]
large value

Also FQNSLYAPDFS [FAM92A_Y226_R222Q_YF] ?
large value

---

# Lookup of reported Screen keyed by entry
- Test system: Fer kinase domain
- Method notes: pTyr-Var library bacterial peptide display kinase screen (enrichment scores);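 also: log2 fold change in enrichment of variant over reference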
- Assay type: biochemical, mouse
- Run conditions: sheet "Fer"; variant peptide relative to its reference peptide, pTyr-Var library screen enrichment
No unit in the answer, please; the number alone is enough.

Sequence content: LPVHFYSHVEH [PYGM_Y204_G205S]
Property label: Screen
Meas value: -0.5676

Sample CSEEMYCLMLQ [RET_Y981_R982C] — what was its Screen?
3.517

Also SPFMLYQFLKQ [RPAP3_Y567_D564Y_YF] , if possible.
-1.212

---

- Test target: c-Src kinase domain (Homo sapiens, UniProt P12931)
- Method notes: pTyr-Var library bacterial peptide display kinase screen (enrichment scores);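 also: log2 fold change in enrichment of variant over reference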
- Format: biochemical
- Run conditions: sheet "Src"; variant peptide versus its reference peptide in the pTyr-Var library screen
Property label: Screen
Lab note: write the figure by itself, no unit.

Sequence content: SVTCTYSLALN [TP53_Y126_P128L]
Screen: 1.349
//
Sequence content: KSDVMYTDWKK [ORM1_Y175_V174M]
Screen: -1.392
//
Sequence content: RPPELYALMSD [ZAP70_Y569_C564R]
Screen: 1.184
//
Sequence content: LLIMEYAKFGS [RET_Y806_V804M_YF]
Screen: 0.7851
//
Sequence content: CGPLLYGLVHQ [PRKCG_Y122_S119P]
Screen: -0.4426

Can you share its Screen? I mean this sequence: NDENIYKGLPD [VAV3_Y141_D139N]
1.088

Now the same for KEAQVYQAFRL [SUCLG2_Y343_K347R]
0.6304

Then what about the sequence KFDLMYAKLAF [TUBA1A_Y399_R402L] ?
2.907

Further, for AQQPIYIRVEG [NLRP7_Y318_V319I] ?
-2.214

Could you do the same for RRIHSYRCHLW [VHL_Y112_G114C] , please?
-2.304

And for PFGQWYESHFA [RPS8_Y113_R110G_YF] ?
2.137

Request: HFVFFYSFLLK [PTEN_Y178_R173H_YF]
0.679
